The entries below are paired with their reported Average IC50 (nM) Human IL-12; PHA blast IFN-gamma induction assay.
SYSTEM_UNDER_TEST: recombinant purified human IL-12 p70 (human) (UniProt P29459)
Sequence (chain, as listed by the source, form in doubt, chain 1 of 2): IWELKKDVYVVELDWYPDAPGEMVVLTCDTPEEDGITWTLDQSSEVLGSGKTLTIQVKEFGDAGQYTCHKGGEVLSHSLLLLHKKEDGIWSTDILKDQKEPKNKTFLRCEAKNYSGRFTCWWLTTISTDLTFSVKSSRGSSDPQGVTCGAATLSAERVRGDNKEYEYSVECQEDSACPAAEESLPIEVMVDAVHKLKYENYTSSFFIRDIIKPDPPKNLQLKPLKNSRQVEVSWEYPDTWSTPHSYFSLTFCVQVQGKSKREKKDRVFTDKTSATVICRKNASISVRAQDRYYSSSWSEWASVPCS
Sequence (P29459 23-219, form in doubt, chain 2 of 2): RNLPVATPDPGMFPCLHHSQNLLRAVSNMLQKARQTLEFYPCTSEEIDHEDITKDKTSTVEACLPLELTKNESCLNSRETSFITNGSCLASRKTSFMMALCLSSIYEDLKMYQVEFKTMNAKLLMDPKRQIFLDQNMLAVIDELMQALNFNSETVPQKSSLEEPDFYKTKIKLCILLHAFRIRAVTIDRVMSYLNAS
MEASUREMENT_DESCRIPTION: cell-based or functional assay
Numbers only here, please. The scale is nM.

-- ask Fill in the blank: the reported Average IC50 (nM) Human IL-12; PHA blast IFN-gamma induction assay of 1D8 (antibody, V domains shown) VH: QVQLQQSGAELMKPGASVKISCKATGYTFSSYWIEWVKQRPGHGLEWIGDILPGSGSTNYNEKFKDKATFTADTSFNTAYMQLSSLTSEDSAVYYCATRRFRGLDYWGQGTTLTVSS VL: SIVMTQTPKFLLVSAGDRVTITCKASQSVSNDVAWYQQKSGQSPKLLIYYASNRYTGVPDRFTGSGYGTDFTFTISTVQPEDLAVYFCQQDYTSPFTFGSGTKLEIKR is ____.
-- reply 0.31

-- ask Fill in the blank: the reported Average IC50 (nM) Human IL-12; PHA blast IFN-gamma induction assay of 3G7 (antibody, V domains shown) VH: QVQLQQSGAELMKPGASVKISCKATGYTFNDYWIEWVKQRPGHGLEWIGGFSHGSGSTNYNEKFKGKATFTADSSSNTAYMQLSSLTSEDSAVYYCARRRFRGMDYWGQGTSVTVSS VL: SIVMTQTPKFLLVSAGDRVTITCKASQSVSNDVAWYQQKPGQSPKLLIYYASNRYTGVPDRFTGSGYGTDFTFTITTVQAEDLAVYFCQQDYSSPWSFGGGTKLEIKR is ____.
-- reply 0.15
